# Tested on: NCI/ADR-RES ovarian
# Assay Overview: NCI-60 one-dose screen, 48 h
# Condition Notes: 10 µM unless noted
The panel holds about 83,000 compounds, 20% with a hit somewhere; the sample as a whole holds those more often. The source made the active and inactive calls. The calls were made as follows: active = growth percent below 10; inactive = the rest.
Bench note: report the call from 1 (active), -1 (inactive)

Take a look at these entries with their results.
Compound | Assigned Class
CC[C@@]1(O)C(=O)OCc2c1cc1n(c2=O)Cc2cc3ccccc3nc2-1 | 1
CC1=C(CO)C2=C(C)C3(CC3)[C@@](C)(O)C(=O)C2=C1 | 1
CCC(=O)OC1CCn2c1nc1c2C(=O)C(C)=C(N2CC2)C1=O (stereo not drawn) | 1
CCOC(=O)C(NC(=O)C(Cc1ccc(N(CCCl)CCCl)cc1)NC(C)=O)C(C)C (stereo not drawn) | -1
Cc1c(N)nc([C@H](CC(N)=O)NC[C@H](N)C(N)=O)nc1C(=O)N[C@H](C(=O)N[C@H](C)[C@@H](O)[C@H](C)C(=O)N[C@H](C(=O)NCCc1nc(-c2nc(C(=O)NCCC[S+](C)C)cs2)cs1)[C@@H](C)O)C(OC1OC(CO)C(O)C(O)C1OC1OC(CO)C(O)C(OC(N)=O)C1O)c1cnc[nH]1 (stereo partly drawn) | -1
CC[n+]1c(-c2ccccc2)c2cc(N)ccc2c2ccc(N)cc21 | -1

Req: Returns: the outcome recorded for Cc1ccc(C(=O)OC(C(=O)O)C(OC(=O)c2ccc(C)cc2)C(=O)O)cc1 (stereo not drawn) (tested in a mixture with another compound) in this assay.
Resp: -1

Req: What call does the record list for CCCCCCCCCCCC1CCCC(C)N1 (stereo not drawn) ?
Resp: -1

Data provenance is PubChem BioAssay (NCI).
